Item-by-item account of Specific signal at 500 pg/mL
# SYSTEM UNDER TEST: T1, recombinant purified FRα (ECL assay calibrator) (human, UniProt P15328 25-234)
# T1 construct: Calibrator of the ECL sandwich assays; also called FRα calibrator; FRα standard
# T1 sequence (P15328 25-234 limits assumed): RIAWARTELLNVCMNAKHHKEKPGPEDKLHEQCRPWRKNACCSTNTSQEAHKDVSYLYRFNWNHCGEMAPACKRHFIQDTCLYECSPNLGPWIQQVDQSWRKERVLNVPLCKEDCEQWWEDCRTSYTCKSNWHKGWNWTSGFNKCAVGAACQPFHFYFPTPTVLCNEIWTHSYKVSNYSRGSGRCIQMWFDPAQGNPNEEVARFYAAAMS
# METHOD NOTES: ECL sandwich, FRα calibrator; capture 24H8.D3; binder = detection Ab
MEASURED METRIC: Specific signal at 500 pg/mL

1. Monoclonal antibody 1C6.E12.G8 (antibody, mouse IgG1, V domains shown, Murine IgG1 kappa from hybridoma; also called ATCC PTA-123091) VH: SGARELVKPGASVKLSCKTSGFTFNSSYITWLKQKPGQSLEWIAWIYAGNGGTTYNQKFTGKAQLTVDTSSSTAYMQFSSLTTEDSAIYYCASETYTNYWYFDVWGSGTTVTVSS VL: QSPASLSASVGETVTITCRASGNIHNYLAWYQQKQGKSPQLLVYNAKTLADGVPSRFSGSGSGTQYSLKINSLQPEDFGSYYCQHFWSTPYTFGGGTKLEIK | 74
2. Monoclonal antibody 1A8.G11.E7 (antibody, mouse IgG1, V domains shown, Murine IgG1 kappa from hybridoma; also called ATCC PTA-123100) VH: ESGPGLVAPSQSLSITCTVSGFSLTSYGVSWVRQPPGKGLEWLGVIWGDGSTNYHSTLISRLSISKDNSKSQVFLKLNSLQTDDTATYYCAKPHPAATGAMDYWGQGTSVTVSS VL: TQTTSSLSASLGDRVTISCRASQDISNHLNWYQQKPDGTVKLLIYYTSRLHSGVPSRFSGSGSGTDYSLTISNLEQEDIATYFCQQGNTLWTFGGGTKLEIK | 84
3. Monoclonal antibody 1D2.D8.G10 (antibody, mouse IgG1, V domains shown, Murine IgG1 kappa from hybridoma; also called 1D2.D8.G0; ATCC PTA-123098) VH: QSGTVLARPGASVKMSCKASGYSFTSNWMHWIKQRPGQGLEWIGAIYPGNSDTSYNQKFKGKAKLTAVTSASTAYMELSSLTNEDSAVYHCTRGDGSSFWYFDVWGAGTTVTVSS VL: QSPASLVVSLGQRATISCRASKSVSTSGYSYMYWYQQKSGQPPKLLIYLASNLESGVPARFSGGGSGTDFTLNIHPVEEEDAATYYCQQSRELPPTFGGGTKLEIK | 79
4. Monoclonal antibody 6A2.G7 (antibody, mouse IgG1, V domains shown, Murine IgG1 kappa from hybridoma; also called ATCC PTA-123093) VH: GADLVKPGASVKMSCKASGYTFSRYNMHWVKQTPGQGLEWIGTIYPGNGDTSYNEKFKGKATLTADKSSSIVYMQVSSLTSEASAVYYCARDYGSRYALDYWGQGTSVTVSS VL: SSLSASLGDRVTISCRASQDISNYLNWYQQKPDGTVKLLIYYTSRLHSGVPSRFSGSGSGTDYSLTISNLEQEDIATYFCQQGNTLPYTFGGGTKLEIK | 6620
5. Monoclonal antibody 19D4.B7 (antibody, mouse IgG2a, V domains shown, SULFO-TAG conjugated when used as detection antibody in the ECL assay; also called ATCC PTA-11884) VH: GARELVKPGASVKLSCTASGFNIKHPYMHWVKQRPDQGLEWIGRIDPANGNTKYDPKFQGKATITADTSSNTAYLQLSSLTSEDTAVYYCGREEVADYTMDYWGQGTSVTVSS VL: PASLAVSLGQRATISCRASESVDTYGNNFIHWYQQKPGQPPKLLIYLASNLESGVPARFSGSGSRTDFTLTIDPVEADDAATYYCQQNNGDPWTFGGGTKLEIKR | 49100

Values were extracted from patent US20180148504A1.
